- assayed.target: pY705-STAT3 in PBMC (Homo sapiens)
- Construct: Cryopreserved Peripheral Blood Mononuclear Cells (PBMC) are from AllCells; host or cells: cryopreserved PBMC
- test.summary: MSD-pSTAT-PBMC Assay (pSTAT3, IL-6 stimulated)
- Format: cell-based
- test.settings: PBMC, compound 3 hrs, then 10 ng/mL IL-6 for 10 min; Table 115; read-out: STAT3
pIC50: −log10 of the molar value.
measurement.type: pIC50

[
  {
    "compound": "CCCOC(=O)[C@H](C)NP(=O)(Oc1ccccc1)[C@@H](F)c1ccc2sc(C(=O)N[C@H]3CCC[C@H]4CC[C@@H](C(=O)N5CC(c6cnccc6N6CC(OC)C6)C5)N4C3=O)cc2c1 (stereo partly drawn)",
    "measurement.type": "pIC50",
    "result": "6.00 to 7.00"
  },
  {
    "compound": "CCOC(=O)[C@H](C)NP(=O)(Cc1ccc2ccc(C(=O)N[C@H]3CCCC[C@H]4CC[C@@H](C(=O)N5CC(c6ccccc6)CC56CC6)N4C3=O)cc2c1)Oc1ccccc1 (stereo partly drawn)",
    "measurement.type": "pIC50",
    "result": "< 5.52"
  }
]

Shift focus to the following entry.
Exercise: Which pIC50 is listed for CCCOC(=O)[C@H](C)NP(=O)(Oc1ccccc1)[C@@H](F)c1ccc2sc(C(=O)N[C@H]3CCC[C@H]4CC[C@@H](C(=O)N5CC(c6cncc(F)c6N(C)C)C5)N4C3=O)cc2c1 (stereo partly drawn) ?
Key: > 7.00

---

- assayed.target: pY705-STAT3 in PBMC (Homo sapiens, UniProt P40763)
- Construct: Cryopreserved Peripheral Blood Mononuclear Cells (PBMC) are from AllCells; host or cells: cryopreserved PBMC
- Sequence (P40763 whole entry): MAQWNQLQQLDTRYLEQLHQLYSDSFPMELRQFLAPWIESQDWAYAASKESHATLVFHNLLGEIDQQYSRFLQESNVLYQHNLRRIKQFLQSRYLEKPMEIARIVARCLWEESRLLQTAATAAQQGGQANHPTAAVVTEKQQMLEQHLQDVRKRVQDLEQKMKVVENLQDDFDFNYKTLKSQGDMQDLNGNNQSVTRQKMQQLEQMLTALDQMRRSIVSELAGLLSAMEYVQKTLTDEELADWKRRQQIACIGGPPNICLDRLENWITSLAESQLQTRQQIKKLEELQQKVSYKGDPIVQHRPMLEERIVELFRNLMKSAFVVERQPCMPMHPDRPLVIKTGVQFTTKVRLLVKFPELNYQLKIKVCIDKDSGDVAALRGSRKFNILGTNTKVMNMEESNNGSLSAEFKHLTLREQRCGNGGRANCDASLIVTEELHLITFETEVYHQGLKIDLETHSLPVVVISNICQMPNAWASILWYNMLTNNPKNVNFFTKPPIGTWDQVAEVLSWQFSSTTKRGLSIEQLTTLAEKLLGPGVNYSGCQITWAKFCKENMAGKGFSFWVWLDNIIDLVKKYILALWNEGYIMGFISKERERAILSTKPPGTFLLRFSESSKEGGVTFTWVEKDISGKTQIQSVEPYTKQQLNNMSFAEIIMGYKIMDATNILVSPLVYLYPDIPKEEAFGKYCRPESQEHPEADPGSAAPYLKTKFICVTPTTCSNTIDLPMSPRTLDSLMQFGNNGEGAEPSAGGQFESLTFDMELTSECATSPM
- test.summary: MSD-pSTAT-PBMC Assay (pSTAT3, IL-6 stimulated)
- Type: cell-based
- test.settings: PBMC, compound 3 hrs, then 10 ng/mL IL-6 for 10 min; Table 115; read-out: STAT3
pIC50: −log10 of the molar value.
measurement.type: pIC50

These solved cases illustrate the format of a correct answer.
[
  {
    "compound": "O=C(N[C@H]1CCC[C@H]2CC[C@@H](C(=O)N3CC(c4cccnc4)C3)N2C1=O)c1cc2cc(CP(=O)(N[C@@H](CCc3ccccc3)C(=O)OCc3ccccc3)Oc3ccccc3)ccc2s1 (stereo partly drawn)",
    "pIC50": "< 5.52"
  },
  {
    "compound": "CCCOC(=O)[C@H](C)NP(=O)(Cc1ccc2sc(C(=O)N[C@H]3CC4(CC[C@H]5CC[C@@H](C(=O)N6CC(c7cccnc7)C6)N5C3=O)CC4)cc2c1)Oc1ccccc1 (stereo partly drawn)",
    "pIC50": "> 7.00"
  }
]

Turning now to a further record.
Exercise: Query (compound): CCCOC(=O)[C@H](C)NP(=O)(Cc1ccc2sc(C(=O)N[C@H]3CCC[C@H]4CC[C@@H](C(=O)N5CC(c6c(OC)ccnc6C(F)F)C5)N4C3=O)cc2c1)Oc1ccccc1 (stereo partly drawn) ; field requested: pIC50
Key: < 5.52

---

The entries below are paired with their reported IC50.
- assayed.target: Recombinant STAT6 protein (STAT6 (W123-T658)) (Homo sapiens, UniProt P42226)
- Construct: Recombinant STAT6 protein (STAT6 (W123-T658))
- Sequence (P42226 123-658): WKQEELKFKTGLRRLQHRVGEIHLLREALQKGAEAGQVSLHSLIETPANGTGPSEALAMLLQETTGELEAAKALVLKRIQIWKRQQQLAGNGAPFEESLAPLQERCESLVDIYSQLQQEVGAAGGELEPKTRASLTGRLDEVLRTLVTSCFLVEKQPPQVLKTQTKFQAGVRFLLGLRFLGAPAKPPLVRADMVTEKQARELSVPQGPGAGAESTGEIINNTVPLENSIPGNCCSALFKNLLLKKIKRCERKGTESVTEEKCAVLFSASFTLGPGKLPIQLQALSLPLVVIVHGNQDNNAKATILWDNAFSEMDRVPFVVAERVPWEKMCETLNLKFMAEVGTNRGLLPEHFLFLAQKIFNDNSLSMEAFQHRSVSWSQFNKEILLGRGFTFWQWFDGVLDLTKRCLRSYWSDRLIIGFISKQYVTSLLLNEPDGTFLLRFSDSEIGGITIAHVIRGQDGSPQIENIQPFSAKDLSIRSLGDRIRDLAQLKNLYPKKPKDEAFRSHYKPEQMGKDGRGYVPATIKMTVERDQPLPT
- test.summary: STAT6 Fluorescence Polarization (FP) Assay
- Format: binding
- test.settings: STAT6 (W123-T658) 250 nM, probe 5-FAM-Ap[…]-NH2 2 nM, 45-minute incubation; read-out: STAT6 (FP assay IC50 class)
- Procedure: STAT6 Fluorescence Polarization (FP) Assay An FP assay was developed to determine IC50 values for test substances. […] Reaction components were mixed, and FP was measured after 45-minute incubation at room temperature using a Tecan Spark multimode plate reader. FP signal (mP) was plotted against the log concentration of the test substances and IC50 values were calculated by nonlinear regression analysis using GraphPad Prism software. […]

Solved entries:
[
  {
    "molecule": "Cn1ccc(=O)c(C2CN(C(=O)[C@@H]3CC[C@@H]4CCC[C@H](NC(=O)c5cc6cc(C(F)P(=O)(O)O)ccc6s5)C(=O)N43)C2)c1 (stereo partly drawn)",
    "IC50": "3 to 30 µM"
  },
  {
    "molecule": "O=C(N[C@H]1CCCC[C@H]2CC[C@@H](C(=O)N3Cc4ccncc4C3)N2C1=O)c1cc2cc(C(F)(F)P(=O)(O)O)ccc2s1",
    "IC50": "0.3 to 3 µM"
  },
  {
    "molecule": "CN(C)c1cncc(C2CN(C(=O)[C@@H]3CC[C@@H]4CCC[C@H](NC(=O)c5cc6cc([C@H](F)P(=O)(O)O)ccc6s5)C(=O)N43)C2)c1Cl (single isomer, unassigned)",
    "IC50": "3 to 30 µM"
  },
  {
    "molecule": "O=C(N[C@H]1CCC[C@H]2CC[C@@H](C(=O)N3CC(c4cnccc4-n4ccnc4)C3)N2C1=O)c1cc2cc([C@@H](F)P(=O)(O)O)ccc2s1",
    "IC50": "3 to 30 µM"
  },
  {
    "molecule": "O=C(N[C@H]1CCC[C@H]2CC[C@@H](C(=O)N3CC(C4=CCCOC4)C3)N2C1=O)c1cc2cc(CP(=O)(O)O)ccc2s1",
    "IC50": "3 to 30 µM"
  }
]

Continue with the molecule presented below.
Exercise: For the molecule Cn1cnc2cc(CNC(=O)[C@@H]3CC[C@@H]4CCC[C@H](NC(=O)c5cc6cc(C(F)(F)P(=O)(O)O)ccc6s5)C(=O)N43)cnc21 , what IC50 is on record?
Key: 0.3 to 3 µM

---

- assayed.target: Recombinant STAT6 protein (STAT6 (W123-T658)) (Homo sapiens)
- Construct: Recombinant STAT6 protein (STAT6 (W123-T658))
- test.summary: STAT6 Fluorescence Polarization (FP) Assay
- Format: binding
- test.settings: STAT6 250 nM, probe 5-FAM-ApYKPFQDLI-NH2 2 nM, 45-minute incubation; read-out: STAT6 (FP assay IC50)
measurement.type: IC50

Example compounds with recorded IC50:
[
  {
    "compound": "CC1CCC[C@H](NC(=O)c2cc3cc(C(F)(F)P(=O)(O)O)ccc3s2)C(=O)N2[C@@H]1CC[C@H]2C(=O)N1C[C@H](c2cc[nH]c(=O)c2)[C@@H](C#N)C1 (single isomer, unassigned)",
    "IC50": "300 to 3000 nM"
  },
  {
    "compound": "N#C[C@H]1CN(C(=O)[C@@H]2CC[C@@H]3CCCC[C@H](NC(=O)c4ccc5ccc(C(F)(F)P(=O)(O)O)cc5c4)C(=O)N32)C[C@@H]1c1cc[nH]c(=O)c1 (single isomer, unassigned)",
    "IC50": "≤ 300 nM"
  },
  {
    "compound": "N#C[C@@H]1CN(C(=O)[C@@H]2CC[C@@H]3CCCC[C@H](NC(=O)c4ccc5ccc(C(F)(F)P(=O)(O)O)cc5c4)C(=O)N32)C[C@H]1c1cc[nH]c(=O)c1 (single isomer, unassigned)",
    "IC50": "≤ 300 nM"
  },
  {
    "compound": "N#C[C@H]1CN(C(=O)[C@@H]2CC[C@@H]3CCCC[C@H](NC(=O)c4cc5cc(CP(=O)(O)O)ccc5s4)C(=O)N32)C[C@@H]1c1ccccc1 (single isomer, unassigned)",
    "IC50": "300 to 3000 nM"
  }
]

Exercise: What does the data say about its IC50? Entry: N#C[C@@H]1CN(C(=O)[C@@H]2CCC[C@@H]3CCC[C@H](NC(=O)c4cc5cc(C(F)(F)P(=O)(O)O)ccc5s4)C(=O)N32)C[C@H]1c1ccccc1 (single isomer, unassigned)
Key: ≤ 300 nM

---

- assayed.target: Recombinant STAT3 protein (STAT3 (G127-I722)) (Homo sapiens)
- Construct: Recombinant STAT3 protein (STAT3 (G127-I722))
- Sequence (P40763 127-722): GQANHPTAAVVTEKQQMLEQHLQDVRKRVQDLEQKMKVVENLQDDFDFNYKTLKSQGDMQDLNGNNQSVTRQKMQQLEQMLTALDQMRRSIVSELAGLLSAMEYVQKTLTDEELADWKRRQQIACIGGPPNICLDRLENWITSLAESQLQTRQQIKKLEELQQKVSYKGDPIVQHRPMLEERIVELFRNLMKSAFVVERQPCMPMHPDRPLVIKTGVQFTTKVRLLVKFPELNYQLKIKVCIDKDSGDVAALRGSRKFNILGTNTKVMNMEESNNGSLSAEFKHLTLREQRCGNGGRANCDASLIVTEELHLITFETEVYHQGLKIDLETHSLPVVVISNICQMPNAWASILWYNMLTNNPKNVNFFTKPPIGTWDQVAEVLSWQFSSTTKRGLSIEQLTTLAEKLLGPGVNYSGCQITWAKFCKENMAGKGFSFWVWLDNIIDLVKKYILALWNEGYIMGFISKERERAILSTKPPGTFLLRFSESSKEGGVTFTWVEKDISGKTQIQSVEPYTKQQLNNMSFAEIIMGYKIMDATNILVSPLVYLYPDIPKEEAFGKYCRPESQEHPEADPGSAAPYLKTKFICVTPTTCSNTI
- test.summary: STAT3 Fluorescence Polarization (FP) Assay
- Type: binding
- test.settings: STAT3 25 nM, probe 5-FAM-GpYLPQTV-NH2 2 nM, 45-minute incubation; read-out: STAT3 (FP assay IC50)
- Experimental: STAT3 Fluorescence Polarization (FP) Assay An FP assay was developed to determine IC50 values for test substances. […] Reaction components were mixed, and FP was measured after 45-minute incubation at room temperature using a Tecan Spark multimode plate reader. FP signal (mP) was plotted against the log concentration of the test substances and IC50 values were calculated by nonlinear regression analysis using GraphPad Prism software. […]
measurement.type: IC50

Solved cases (2 shown):
[
  {
    "molecule": "N#C[C@H]1CN(C(=O)[C@@H]2CC[C@@H]3CCCC[C@H](NC(=O)c4ccc5ccc(C(F)(F)P(=O)(O)O)cc5c4)C(=O)N32)C[C@@H]1c1ccccc1 (mixture of isomers)",
    "IC50": "1 to 10 µM"
  },
  {
    "molecule": "O=C(N[C@H]1C[C@@H](OCc2ccccc2)CC[C@H]2CC[C@@H](C(=O)N3CC(C(=O)N4CCOCC4)C3)N2C1=O)c1cc2cc(C(F)(F)P(=O)(O)O)ccc2s1",
    "IC50": "0.1 to 1 µM"
  }
]

Shifting focus to the molecule that follows.
Exercise: IC50 of O=C(NC1CCCC[C@H]2CC[C@@H](C(=O)N3CC(c4ccccc4)CC34CC4)N2C1=O)c1cc2cc(C(F)(F)P(=O)(O)O)ccc2s1 (stereo partly drawn) on Recombinant STAT3 protein (STAT3 (G127-I722)) (Homo sapiens)?
Key: 1 to 10 µM
